Assayed Target: 11-beta-hydroxysteroid dehydrogenase 1 (Mus musculus)
Sequence (P50172 whole entry): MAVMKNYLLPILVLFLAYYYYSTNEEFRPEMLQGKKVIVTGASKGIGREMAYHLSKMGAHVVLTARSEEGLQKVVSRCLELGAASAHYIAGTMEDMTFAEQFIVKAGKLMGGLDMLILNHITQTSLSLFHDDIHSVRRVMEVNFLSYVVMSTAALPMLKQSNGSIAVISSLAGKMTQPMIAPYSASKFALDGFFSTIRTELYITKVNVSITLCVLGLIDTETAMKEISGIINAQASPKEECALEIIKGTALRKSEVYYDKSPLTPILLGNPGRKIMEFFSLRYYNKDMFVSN
Test: Inhibition of full-length mouse 11beta-HSD1 expressed in HEK293 microsomal fraction […] after 1 hr by scintillation proximity assay
Parameter Measured: IC50 (nM)

// worked examples, IC50 included
CC(=O)[C@]1(O)CC[C@]2(C)[C@@H]1[C@H](O)C[C@@H]1[C@@]3(C)CC[C@H](O)C(C)(C)[C@@H]3CC[C@]12C	601
CC1(C)[C@@H](O)CC[C@]2(C)[C@H]3C[C@@H](O)[C@@H]4[C@@H](CO)CC[C@@]4(C)[C@]3(C)CC[C@@H]12	476
CC(=O)O[C@H]1CC[C@]2(C)[C@H]3C[C@@H](O)[C@@H]4[C@@H](C(C)=O)CC[C@@]4(C)[C@]3(C)CC[C@H]2C1(C)C	454

(1) CC1(C)[C@@H](O)CC[C@]2(C)[C@H]3C[C@@H](O)[C@@H]4CCC[C@@]4(C)[C@]3(C)CC[C@@H]12
(2) CC(=O)O[C@H]1CC[C@]2(C)[C@H]3C[C@@H](O)[C@@H]4[C@@H](O)CC[C@@]4(C)[C@]3(C)CC[C@H]2C1(C)C
(3) CO[C@H]1CC(=O)[C@]2(C)[C@@H]1[C@H](OC(C)=O)C[C@@H]1[C@@]3(C)CC[C@H](O)C(C)(C)[C@@H]3CC[C@]12C
Rank entries according to their IC50, from the largest number down. Submit the labels in the order that the ranking request calls for.
1, 3, 2

---

Assayed Target: 11-beta-hydroxysteroid dehydrogenase 1 (Homo sapiens, UniProt P28845)
Condition Description: HEK293, at 1 µM
Sequence (P28845 whole entry, looked up): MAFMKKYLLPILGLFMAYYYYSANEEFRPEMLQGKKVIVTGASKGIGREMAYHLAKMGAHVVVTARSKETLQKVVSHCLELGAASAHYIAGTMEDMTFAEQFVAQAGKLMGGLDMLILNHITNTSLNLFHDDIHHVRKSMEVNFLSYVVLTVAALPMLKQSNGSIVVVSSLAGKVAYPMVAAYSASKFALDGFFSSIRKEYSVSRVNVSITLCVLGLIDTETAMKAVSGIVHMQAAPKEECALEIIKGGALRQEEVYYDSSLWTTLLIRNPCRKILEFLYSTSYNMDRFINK
Description: Inhibition of full-length human 11beta-HSD1 expressed in HEK293 microsomal fraction at 1 uM using [3H]cortisone as substrate after 2 hr by scintillation proximity assay relative to control
Parameter Measured: inhibition (%)

CC(=O)O[C@H]1CC[C@]2(C)[C@H]3C[C@@H](OC(C)=O)[C@@H]4[C@@H](C(C)=O)CC[C@@]4(C)[C@]3(C)CC[C@H]2C1(C)C	69.4

(A) CC1(C)[C@@H](O)CC[C@]2(C)[C@H]3CC(=O)C4=CCC[C@@]4(C)[C@]3(C)CC[C@@H]12
(B) CC(=O)O[C@H]1CC[C@]2(C)[C@H]3C[C@@H](OC(C)=O)[C@@H]4[C@@H](C(=O)CCCC(C)C)CC[C@@]4(C)[C@]3(C)CC[C@H]2C1(C)C
Lab log: flag the item ( A or B ) with the smaller inhibition figure. Answer by stating the label of the chosen item.
A
(A: 50.2%, B: 81.1%)

---

Assayed Target: 11-beta-hydroxysteroid dehydrogenase 1 (Homo sapiens, UniProt P28845)
Condition Description: HEK293, at 1 µM
Parameter Measured: inhibition (%)

CC(=O)O[C@H]1CC[C@]2(C)[C@H]3C[C@@H](O)[C@@H]4[C@@H](O)CC[C@@]4(C)[C@]3(C)CC[C@H]2C1(C)C	51.6
CC(=O)O[C@H]1CC[C@]2(C)[C@H]3C[C@@H](OC(C)=O)[C@@H]4[C@@H](C(=O)CO)CC[C@@]4(C)[C@]3(C)CC[C@H]2C1(C)C	62.6
CCC(=O)CC[C@]1(C)C(=O)[C@H](O)C[C@@H]2[C@@]3(C)CC[C@H](OC(C)=O)C(C)(C)[C@@H]3CC[C@]21C	54.3

---

Assayed Target: 11-beta-hydroxysteroid dehydrogenase 1 (Mus musculus) (UniProt P50172)
Sequence (P50172 whole entry, looked up): as the sequence (P50172 whole entry) above
Condition Description: at 1 µM
Description: Inhibition of full-length mouse 11beta-HSD1 expressed in HEK293 microsomal fraction at 1 uM using [3H]cortisone as substrate after 1 hr by scintillation proximity assay relative to control
Parameter Measured: inhibition (%)

Known results for molecules:
CC1(C)[C@@H](O)CC[C@]2(C)[C@H]3C[C@H]4OC[C@H]5CC[C@](C)([C@@H]54)[C@]3(C)CC[C@@H]12	44.9
CC1(C)[C@@H](O)CC[C@]2(C)[C@H]3C[C@@H](O)[C@@H]4CCC[C@@]4(C)[C@]3(C)CC[C@@H]12	58.4
CC(=O)O[C@H]1CC[C@]2(C)[C@H]3C[C@@H](OC(C)=O)C4=CCC[C@@]4(C)[C@]3(C)CC[C@H]2C1(C)C	15.4

(I) CC1(C)[C@@H](O)CC[C@]2(C)[C@H]3CC(=O)C4=CCC[C@@]4(C)[C@]3(C)CC[C@@H]12
(II) CC(=O)O[C@H]1CC[C@]2(C)[C@H]3C[C@@H](OC(C)=O)[C@@H]4[C@@H](C(=O)CF)CC[C@@]4(C)[C@]3(C)CC[C@H]2C1(C)C
(III) CC1(C)[C@@H](O)CC[C@]2(C)[C@H]3C[C@@H](O)[C@@H]4[C@@H](O)CC[C@@]4(C)[C@]3(C)CC[C@@H]12
(IV) CC1(C)CCC[C@]2(C)[C@H]3C[C@@H](O)[C@@H]4[C@@H](O)CC[C@@]4(C)[C@]3(C)CC[C@@H]12
(V) CC(=O)O[C@H]1CC[C@]2(C)[C@H]3C[C@@H](O)[C@@H]4[C@@H](O)CC[C@@]4(C)[C@]3(C)CC[C@H]2C1(C)C
Put the molecules in ascending order of inhibition. Thanks in advance for listing the labels in the requested order.
IV, II, III, I, V
(IV: 6.25%, II: 11.9%, III: 28.2%, I: 47.4%, V: 79%)

(A) CC(=O)O[C@H]1CC[C@]2(C)[C@H]3C[C@@H](OC(C)=O)[C@@H]4[C@@H](C(=O)CCCC(C)C)CC[C@@]4(C)[C@]3(C)CC[C@H]2C1(C)C
(B) CC(=O)[C@H]1CC[C@]2(C)[C@@H]1[C@H](O)C[C@@H]1[C@@]3(C)CCC(=O)OC(C)(C)[C@@H]3CC[C@]12C
Select the item whose inhibition value is smaller, choosing between A and B . Reply with the label of the item you choose.
A

(A) CC(C)(O)[C@@H]1CC[C@]2(C)[C@H](C[C@@H](O)[C@@H]3[C@@H](O)CC[C@]32C)[C@@]1(C)CCC(=O)O
(B) CCC(=O)CC[C@]1(C)C(=O)[C@H](O)C[C@@H]2[C@@]3(C)CC[C@H](OC(C)=O)C(C)(C)[C@@H]3CC[C@]21C
(C) CC1(C)C=CC[C@]2(C)[C@H]3C[C@@H](O)[C@@H]4[C@@H](O)CC[C@@]4(C)[C@]3(C)CC[C@@H]12
Sequence the entries by inhibition, beginning with the highest number. Form entry: ranked labels (order as requested).
C, A, B

(1) CC1=C2CC[C@]3(C)[C@@H]2[C@@H](C[C@@H]2[C@@]4(C)CC[C@H](O)C(C)(C)[C@@H]4CC[C@]23C)OCO1
(2) CC1(C)[C@@H](O)CC[C@]2(C)[C@H]3C[C@@H](O)[C@@H]4[C@H](O)CC[C@@]4(C)[C@]3(C)CC[C@@H]12
Returns: the argument ( 1 or 2 ) having the larger inhibition. Choose, then provide that item's label.
2

---

Assayed Target: 11-beta-hydroxysteroid dehydrogenase 1 (Homo sapiens)
Test: Inhibition of full-length human 11beta-HSD1 expressed in HEK293 microsomal fraction using [3H]cortisone as substrate after 2 hr by scintillation proximity assay
Sequence (P28845 whole entry): as the sequence (P28845 whole entry, looked up) above
Parameter Measured: IC50 (nM)

Check out these entries, answers already filled in.
CC(=O)O[C@H]1CC[C@]2(C)[C@H]3C[C@@H](OC(C)=O)[C@@H]4[C@@H](C(=O)CO)CC[C@@]4(C)[C@]3(C)CC[C@H]2C1(C)C	488
CC(=O)O[C@H]1CC[C@]2(C)[C@H]3C[C@@H](O)[C@@H]4[C@@H](O)CC[C@@]4(C)[C@]3(C)CC[C@H]2C1(C)C	994
CC1(C)[C@@H](O)CC[C@]2(C)[C@H]3CC(=O)C4=CCC[C@@]4(C)[C@]3(C)CC[C@@H]12	1050
CCC(=O)CC[C@]1(C)C(=O)[C@H](O)C[C@@H]2[C@@]3(C)CC[C@H](OC(C)=O)C(C)(C)[C@@H]3CC[C@]21C	729

(P) CC(=O)O[C@H]1CC[C@]2(C)[C@H]3C[C@@H](OC(C)=O)[C@@H]4[C@@H](C(=O)CCCC(C)C)CC[C@@]4(C)[C@]3(C)CC[C@H]2C1(C)C
(Q) CC(=O)O[C@H]1CC[C@]2(C)[C@H]3C[C@@H](OC(C)=O)[C@@H]4[C@@H](C(C)=O)CC[C@@]4(C)[C@]3(C)CC[C@H]2C1(C)C
// returns P or Q , whichever has the lower IC50 // respond with label for picked entry
P

---

Assayed Target: 11-beta-hydroxysteroid dehydrogenase 1 (Homo sapiens, UniProt P28845)
Test: Inhibition of human N-terminal His-tagged 11beta-HSD1 expressed in Escherichia coli using cortisol as substrate by fluorescence-based assay
Parameter Measured: IC50 (µM)
Give just the number in µM; leave the unit off.

Which IC50 is reported for this molecule? CC1=CC[C@@]2(CC1O)[C@@H](C(=O)O)CC[C@H]2C(C)C (stereo partly specified)
0.013

---

Assayed Target: 11-beta-hydroxysteroid dehydrogenase 1 (Mus musculus) (UniProt P50172)
Condition Description: at 1 µM
Parameter Measured: inhibition (%)

COC(=O)[C@H]1CC[C@]2(C)[C@@H]1[C@H](O)C[C@@H]1[C@@]3(C)CC[C@H](O)C(C)(C)[C@@H]3CC[C@]12C	7.69
CC1(C)[C@@H](O)CC[C@]2(C)[C@H]3C[C@@H](O)[C@@H]4[C@@H](Cl)CC[C@@]4(C)[C@]3(C)CC[C@@H]12	35.8

(1) CCC(=O)CC[C@]1(C)C(=O)[C@H](OC(C)=O)C[C@@H]2[C@@]3(C)CC[C@H](OC(C)=O)C(C)(C)[C@@H]3CC[C@]21C
(2) CC1(C)[C@@H](O)CC[C@]2(C)[C@H]3C[C@@H](O)[C@@H]4[C@@H](CO)CC[C@@]4(C)[C@]3(C)CC[C@@H]12
Could you point out whether the larger inhibition belongs to 1 or to 2 ? State your choice using its label.
2
(2: 57.9%, 1: 13.3%)

(P) CC(=O)O[C@H]1CC[C@]2(C)[C@H]3C[C@@H](OC(C)=O)[C@@H]4C(=O)CC[C@@]4(C)[C@]3(C)CC[C@H]2C1(C)C
(Q) CC(=O)OCO[C@@H]1C[C@@H]2[C@@]3(C)CC[C@H](O)C(C)(C)[C@@H]3CC[C@@]2(C)[C@]2(C)CCC(=O)[C@@H]12
Problem: Given the entries P and Q , determine which has the lower reported inhibition. Reply briefly: the label of your chosen item.
P
(P: 12.5%, Q: 20.9%)

(1) CC(C)CCCC(=O)[C@H]1CC[C@]2(C)[C@@H]1[C@H](O)C[C@@H]1[C@@]3(C)CC[C@H](O)C(C)(C)[C@@H]3CC[C@]12C
(2) CC(=O)[C@]1(O)CC[C@]2(C)[C@@H]1[C@H](O)C[C@@H]1[C@@]3(C)CC[C@H](O)C(C)(C)[C@@H]3CC[C@]12C
Hi! Which is lower in terms of inhibition, the first one 1 or the second one 2 ? Lab note: record the label of whichever item you select.
1
